Source listed as paper PMC2553845.

# measured.on: T1, SCRIB PDZ domain 3 (human, UniProt Q14160 1004-1093)
# T1 chain: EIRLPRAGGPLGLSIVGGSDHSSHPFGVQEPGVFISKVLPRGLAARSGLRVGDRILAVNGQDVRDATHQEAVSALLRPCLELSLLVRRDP
# assay.method.text: ELISA
pIC50: −log10 of the molar value. Where no end group is shown, it is not given here.
// pIC50 lookup, one value per entry

# binder, pIC50
rows = [
    ("RQIKIWFQNRRMKWKKRSWFETWV (not fully specified) [designed SCRIB PDZ-binding peptide Π-RSWFETWV (peptide 14)]", 5.41),
    ("KHFRETEV (not fully specified) [peptide 2, C terminus of the HTLV-1 Tax protein]", 4.24),
]
